Reported HC50 by item:
experiment: Hemolytic activity against human erythrocytes; type: ADME, cell-based, Erythrocyte; details: read-out: ED50 (the source's name)
*1 amine or outer side, *2 acyl side, *3 side chain or, on linkers, in order; H or OH if unused. Where a SMILES comes first, the peptide text is derived from it. [ ]: non-standard residue; d: D form. X1 = O=C(/C(=C/c1cccnc1)N[*:1])[*:2]; X2 = O=C(/C(=C/c1ccccc1)N[*:1])[*:2]; Orn = NCCC[C@H](N)C(=O)O

- Molecule: "CC(C)C[C@@H]1NC(=O)[C@H](CCCN)NC(=O)[C@H](C(C)C)NC(=O)[C@@H]2CCCN2C(=O)/C(=C/c2cccnc2)NC(=O)[C@H](CC(C)C)NC(=O)[C@H](CCCN)NC(=O)[C@H](C(C)C)NC(=O)[C@@H]2CCCN2C(=O)/C(=C/c2cccnc2)NC1=O (cyclo(L[X1]PV[Orn]L[X1]PV[Orn]))"
  Cmp: ">"
  HC50 / µM: 100
- Molecule: "CC(C)C[C@@H]1NC(=O)[C@H](CCCN)NC(=O)[C@H](C(C)C)NC(=O)[C@@H]2CCCN2C(=O)[C@@H](Cc2ccc(O)cc2)NC(=O)[C@H](CC(C)C)NC(=O)[C@H](CCCN)NC(=O)[C@H](C(C)C)NC(=O)[C@@H]2CCCN2C(=O)[C@@H](Cc2ccc(O)cc2)NC1=O (cyclo(L[dY]PV[Orn]L[dY]PV[Orn]))"
  Cmp: "="
  HC50 / µM: 10
- Molecule: "CC(C)C[C@@H]1NC(=O)[C@H](CCCN)NC(=O)[C@H](C(C)C)NC(=O)[C@@H]2CCCN2C(=O)/C(=C/c2ccccc2)NC(=O)[C@H](CC(C)C)NC(=O)[C@H](CCCN)NC(=O)[C@H](C(C)C)NC(=O)[C@@H]2CCCN2C(=O)/C(=C/c2cccnc2)NC1=O (cyclo(L[X2]PV[Orn]L[X1]PV[Orn]))"
  Cmp: "="
  HC50 / µM: 20

* * *

tested on: Escherichia coli; experiment: Induction of cytoplasmic membrane disruption in Escherichia coli K-12 W3110 assessed as change in potassium permeability after 30 mins; assay type: functional; conditions: K-12 W3110, 0.5 h, read-out: ED50 (the source's name)
*1 amine or outer side, *2 acyl side, *3 side chain or, on linkers, in order; H or OH if unused. Where a SMILES comes first, the peptide text is derived from it. [ ]: non-standard residue; d: D form. X1 = O=C(/C(=C/c1cccnc1)N[*:1])[*:2]; X2 = O=C(/C(=C/c1ccccc1)N[*:1])[*:2]; d3Pal = N[C@H](Cc1cccnc1)C(=O)O; Orn = NCCC[C@H](N)C(=O)O

- Compound: "CC(C)C[C@@H]1NC(=O)[C@H](CCCN)NC(=O)[C@H](C(C)C)NC(=O)[C@@H]2CCCN2C(=O)[C@@H](Cc2ccccc2)NC(=O)[C@H](CC(C)C)NC(=O)[C@H](CCCN)NC(=O)[C@H](C(C)C)NC(=O)[C@@H]2CCCN2C(=O)[C@@H](Cc2ccccc2)NC1=O [GRAMICIDIN S] (cyclo(L[dF]PV[Orn]L[dF]PV[Orn]))"
  Cmp: "="
  EC50 / µM: 20
- Compound: "CC(C)C[C@@H]1NC(=O)[C@H](CCCN)NC(=O)[C@H](C(C)C)NC(=O)[C@@H]2CCCN2C(=O)/C(=C/c2ccccc2)NC(=O)[C@H](CC(C)C)NC(=O)[C@H](CCCN)NC(=O)[C@H](C(C)C)NC(=O)[C@@H]2CCCN2C(=O)/C(=C/c2ccccc2)NC1=O (cyclo(L[X2]PV[Orn]L[X2]PV[Orn]))"
  Cmp: "="
  EC50 / µM: 20
- Compound: "CC(C)C[C@@H]1NC(=O)[C@H](C)NC(=O)[C@H](C(C)C)NC(=O)[C@@H]2CCCN2C(=O)/C(=C/c2cccnc2)NC(=O)[C@H](CC(C)C)NC(=O)[C@H](C)NC(=O)[C@H](C(C)C)NC(=O)[C@@H]2CCCN2C(=O)/C(=C/c2cccnc2)NC1=O (cyclo(AL[X1]PVAL[X1]PV))"
  Cmp: ">"
  EC50 / µM: 100
- Compound: "CC(C)C[C@@H]1NC(=O)[C@H](C)NC(=O)[C@H](C(C)C)NC(=O)[C@@H]2CCCN2C(=O)/C(=C/c2cccnc2)NC(=O)[C@H](CC(C)C)NC(=O)[C@H](CCCN)NC(=O)[C@H](C(C)C)NC(=O)[C@@H]2CCCN2C(=O)/C(=C/c2cccnc2)NC1=O (cyclo(AL[X1]PV[Orn]L[X1]PV))"
  Cmp: ">"
  EC50 / µM: 100
- Compound: "CC(C)C[C@@H]1NC(=O)[C@H](CCCN)NC(=O)[C@H](C(C)C)NC(=O)[C@@H]2CCCN2C(=O)/C(=C/c2ccccc2)NC(=O)[C@H](CC(C)C)NC(=O)[C@H](CCCN)NC(=O)[C@H](C(C)C)NC(=O)[C@@H]2CCCN2C(=O)/C(=C/c2cccnc2)NC1=O (cyclo(L[X2]PV[Orn]L[X1]PV[Orn]))"
  Cmp: "="
  EC50 / µM: 50
- Compound: "CC(C)C[C@@H]1NC(=O)[C@H](CCCN)NC(=O)[C@H](C(C)C)NC(=O)[C@@H]2CCCN2C(=O)/C(=C/c2cccnc2)NC(=O)[C@H](CC(C)C)NC(=O)[C@H](CCCN)NC(=O)[C@H](C(C)C)NC(=O)[C@@H]2CCCN2C(=O)/C(=C/c2cccnc2)NC1=O (cyclo(L[X1]PV[Orn]L[X1]PV[Orn]))"
  Cmp: "="
  EC50 / µM: 50
- Compound: "CC(C)C[C@@H]1NC(=O)[C@H](CCCN)NC(=O)[C@H](C(C)C)NC(=O)[C@@H]2CCCN2C(=O)[C@@H](Cc2cccnc2)NC(=O)[C@H](CC(C)C)NC(=O)[C@H](CCCN)NC(=O)[C@H](C(C)C)NC(=O)[C@@H]2CCCN2C(=O)[C@@H](Cc2cccnc2)NC1=O (cyclo(L[d3Pal]PV[Orn]L[d3Pal]PV[Orn]))"
  Cmp: "="
  EC50 / µM: 50
